Experiment: Phase-Ib study in CF patients, plasma pharmacokinetics (LC-MS/MS)
Format: in vivo
Conditions: human, inhaled or intranasal, dose group 3 (320 mg), read-out: mean terminal half-life (plasma) (converted)
Method: AUC0-∞, AUC0-∞/D, Cmax, Cmax/D of active compound in plasma as primary variables and tmax, t1/2, λ2, […] of active compound in plasma as secondary variables. Blood samples for the determination of the plasma concentrations of active compound were taken at the following points in time: […] The pharmacokinetic parameters mentioned above were calculated based on actual blood and sputum sampling times using non-compartmental procedures.
Non-standard residues stand in square brackets, D forms with d. Residues, ends and D or L forms follow the SMILES beside them. Gly(octyl) = CCCCCCCC[C@H](N)C(=O)O
experimental_endpoint: half-life (h)

| compound | recorded_result |
| --- | --- |
| CCCCCCCC[C@@H]1NC(=O)[C@@H]2CCCN2C(=O)[C@H]2CCCN2C(=O)[C@H](Cc2ccc(O)cc2)NC(=O)[C@H](CCCCN)NC(=O)[C@H](CCC(N)=O)NC(=O)[C@@H]2CCCN2C(=O)[C@@H]2CCCN2C(=O)[C@H]([C@@H](C)CC)NC(=O)[C@H](CO)NC(=O)[C@H](C)NC(=O)[C@H]([C@@H](C)O)NC(=O)[C@H](CCC(=O)O)NC1=O [active compound] (cyclo([Gly(octyl)]ETASIPPQKY[dP]P)) | 3.8 |

The reported measurements were obtained from patent US11235023B2.
